Observed log10(Ki), system E3 ubiquitin-protein ligase Mdm2 (Homo sapiens).
The common logarithm of Ki in µM is what is listed.

[in] Recall the reported log10(Ki) of O=C(c1ccc(Cl)cc1)C(Cc1cccc(C(F)(F)F)c1)C(=O)c1cc(F)ccc1F (centres undefined) on E3 ubiquitin-protein ligase Mdm2 (Homo sapiens) and write it down.
Sequence (Q00987 whole entry): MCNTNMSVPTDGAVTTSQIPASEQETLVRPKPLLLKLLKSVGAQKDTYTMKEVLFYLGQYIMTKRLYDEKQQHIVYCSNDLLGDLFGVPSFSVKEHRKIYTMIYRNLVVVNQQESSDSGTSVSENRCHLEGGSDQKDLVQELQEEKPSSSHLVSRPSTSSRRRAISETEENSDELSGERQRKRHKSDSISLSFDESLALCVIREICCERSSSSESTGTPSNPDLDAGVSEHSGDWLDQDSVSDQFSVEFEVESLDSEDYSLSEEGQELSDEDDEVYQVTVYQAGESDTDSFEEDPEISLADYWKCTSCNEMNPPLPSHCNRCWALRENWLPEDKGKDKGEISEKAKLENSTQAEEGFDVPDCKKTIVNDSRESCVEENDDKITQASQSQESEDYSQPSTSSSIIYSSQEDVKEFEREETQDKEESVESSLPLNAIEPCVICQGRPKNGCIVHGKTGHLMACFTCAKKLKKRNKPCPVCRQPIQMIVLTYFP
[out] 1.13

New cases:
[in] Recall the reported log10(Ki) of O=C(c1ccc(Cl)cc1)C(Cc1ccc(-c2ccccc2)cc1)C(=O)c1cc(F)ccc1F (centres undefined) on E3 ubiquitin-protein ligase Mdm2 (Homo sapiens) and write it down.
[out] 1.39

[in] Recall the reported log10(Ki) of O=C(O)c1ccc(C(=O)N(c2ccc(Cl)cc2)C(C(=O)c2ccc(Cl)cc2)c2ccc(F)cc2Cl)cc1 (centres undefined) on E3 ubiquitin-protein ligase Mdm2 (Homo sapiens) and write it down.
[out] -0.49
